# EC50 annotations
# Test system: Human immunodeficiency virus 1
# protocol-description: Antiviral activity against non-nucleoside reverse transcriptase inhibitor-resistant HIV1 bearing reverse transcriptase A17 (K103N, Y181C) mutation infected in human MT4 cells assessed as protection from virus-induced cytopathogenicity after 4 days by MTT assay
# Format: functional, organism-based
# condition-info: Human immunodeficiency virus 1, MT4, 96 h

Cc1ncccc1OP(=O)(OC[C@H]1O[C@@H](n2cc(C)c(=O)[nH]c2=O)C[C@@H]1N=[N+]=[N-])Oc1cccnc1C
10 nM
Cc1ccc(OP(=O)(OC[C@H]2O[C@@H](n3cc(C)c(=O)[nH]c3=O)C[C@@H]2N=[N+]=[N-])Oc2ccccc2)cn1 (some centres undefined)
40 nM
O=c1ccn([C@H]2CC[C@@H](COP(=O)(Oc3ccncc3)Oc3cccnc3)O2)c(=O)[nH]1 (some centres undefined)
5000 nM

Ask: Look up EC50 for this compound: O=c1ccn([C@H]2CC[C@@H](COP(=O)(Oc3ccccc3)Oc3ccncc3)O2)c(=O)[nH]1 (some centres undefined)
Reply: 2000 nM

---

# protocol-description: Cytotoxicity against human MT4 cells after 96 hrs by MTT assay
# Type: cell-based
property-measured: CC50 at 96 h

Consider the reported CC50 at 96 h for these molecules:
Cc1cn([C@H]2C[C@H](N=[N+]=[N-])[C@@H](COP(=O)(Oc3ccccc3)Oc3ccncc3)O2)c(=O)[nH]c1=O (some centres not stated)
> 100 µM
Cc1cn([C@H]2C[C@H](N=[N+]=[N-])[C@@H](COP(=O)(Oc3ccccc3)Oc3cncc(Cl)c3)O2)c(=O)[nH]c1=O (some centres not stated)
100 µM
O=c1ccn([C@H]2CC[C@@H](CO)O2)c(=O)[nH]1
> 100 µM
O=c1ccn([C@H]2CC[C@@H](COP(=O)(Oc3ccncc3)Oc3cccnc3)O2)c(=O)[nH]1 (some centres not stated)
> 100 µM
Cc1cn([C@H]2C[C@H](N=[N+]=[N-])[C@@H](COP(=O)(Oc3ccc(Br)cc3)Oc3cccnc3)O2)c(=O)[nH]c1=O (some centres not stated)
94 µM

Ask: Look up CC50 at 96 h for this molecule: Cc1cn([C@H]2C[C@H](N=[N+]=[N-])[C@@H](COP(=O)(Oc3ccncc3)Oc3cccnc3)O2)c(=O)[nH]c1=O (some centres not stated)
Reply: > 100 µM

Ask: Look up CC50 at 96 h for this molecule: Cc1cn([C@H]2C[C@H](N=[N+]=[N-])[C@@H](COP(=O)(Oc3ccc(Cl)cc3)Oc3cccnc3)O2)c(=O)[nH]c1=O (some centres not stated)
Reply: ≥ 100 µM

---

# protocol-description: Chemical stability assessed as enzymatic hydrolysis half life in RPMI-1640 culture medium containing heat non-inactivated fetal bovine serum by HPLC analysis
# Assay type: physicochemical
# condition-info: cattle
property-measured: half-life (h)
Numeric answer only, unit h assumed.

Consider the reported half-life for these molecules:
O=c1ccn([C@H]2CC[C@@H](COP(=O)(O)Oc3ccncc3)O2)c(=O)[nH]1
23.6
Cc1cn([C@H]2C[C@H](N=[N+]=[N-])[C@@H](COP(=O)(O)Oc3ccccc3)O2)c(=O)[nH]c1=O
9.47

--- query ---
Ask: Look up half-life for this molecule: Nc1ncnc2c1ncn2[C@H]1CC[C@@H](COP(=O)(O)Oc2cccnc2)O1
Reply: 64.2

---

# pEC50 annotations
# System: Human immunodeficiency virus 1
# protocol-description: Antiviral activity against non-nucleoside reverse transcriptase inhibitor-resistant HIV1 bearing reverse transcriptase N119 (Y181C) mutation infected in human MT4 cells assessed as protection from virus-induced cytopathogenicity after 4 days by MTT assay
# Assay type: functional, organism-based
# condition-info: Human immunodeficiency virus 1, MT4, 96 h
In textbook form, pEC50 equals minus log to base ten of the concentration in mol/L.

Consider the reported pEC50 for these molecules:
Cc1ncccc1OP(=O)(OC[C@H]1O[C@@H](n2cc(C)c(=O)[nH]c2=O)C[C@@H]1N=[N+]=[N-])Oc1ccccc1 (stereo partly specified)
7.10
Cc1cn([C@H]2C[C@H](N=[N+]=[N-])[C@@H](COP(=O)(Oc3ccccc3)Oc3cccnc3)O2)c(=O)[nH]c1=O (stereo partly specified)
7.40

Ask: Look up pEC50 for this molecule: Cc1cn([C@H]2C[C@H](N=[N+]=[N-])[C@@H](COP(=O)(Oc3cccnc3)Oc3ccc(Cl)cc3Cl)O2)c(=O)[nH]c1=O (stereo partly specified)
Reply: 8.00

Ask: Look up pEC50 for this molecule: O=c1ccn([C@H]2CC[C@@H](COP(=O)(Oc3ccccc3)Oc3ccncc3)O2)c(=O)[nH]1 (stereo partly specified)
Reply: 5.40

---

# System: Human immunodeficiency virus 1
# protocol-description: Antiviral activity against non-nucleoside reverse transcriptase inhibitor-resistant HIV1 bearing reverse transcriptase N119 (Y181C) mutation infected in human MT4 cells assessed as protection from virus-induced cytopathogenicity after 4 days by MTT assay
# Format: functional, organism-based
# condition-info: Human immunodeficiency virus 1, MT4, 96 h
property-measured: EC50 (nM)
Numeric answer only, unit nM assumed.

Nc1ncnc2c1ncn2[C@H]1CC[C@@H](COP(=O)(Oc2ccccc2)Oc2cccnc2)O1 (some centres not stated)
30000

Ask: Look up EC50 for this molecule: Cc1ccc(OP(=O)(OC[C@H]2O[C@@H](n3cc(C)c(=O)[nH]c3=O)C[C@@H]2N=[N+]=[N-])Oc2ccc(C)nc2)cn1
Reply: 50

Ask: Look up EC50 for this molecule: Cc1cn([C@H]2C[C@H](N=[N+]=[N-])[C@@H](COP(=O)(Oc3ccccc3)Oc3ccncc3)O2)c(=O)[nH]c1=O (some centres not stated)
Reply: 10

Ask: Look up EC50 for this molecule: Cc1ccc(OP(=O)(OC[C@H]2O[C@@H](n3cc(C)c(=O)[nH]c3=O)C[C@@H]2N=[N+]=[N-])Oc2ccccc2)cn1 (some centres not stated)
Reply: 80

Ask: Look up EC50 for this molecule: Cc1cn([C@H]2C[C@H](N=[N+]=[N-])[C@@H](COP(=O)(Oc3ccccc3)Oc3cncc(Cl)c3)O2)c(=O)[nH]c1=O (some centres not stated)
Reply: 50

Ask: Look up EC50 for this molecule: Cc1cn([C@H]2C[C@H](N=[N+]=[N-])[C@@H](CO)O2)c(=O)[nH]c1=O [ZIDOVUDINE]
Reply: 10

Ask: Look up EC50 for this molecule: O=c1ccn([C@H]2CC[C@@H](COP(=O)(Oc3ccccc3)Oc3cccnc3)O2)c(=O)[nH]1 (some centres not stated)
Reply: 30000
